Source listed as patent US20170305943A1.

Test system: Clostridium difficile (Isolate ID ATCC 9689)
Experiment: Bacterial Assay: Determination of Antibacterial Activity (MIC, broth microdilution or agar dilution)
Assay type: cell-based
Settings: Clostridioides difficile, ATCC9689, 48 h, read-out: C. difficile MIC Activity Range
Catalogue of MIC readings, one per entry.

{"columns": ["Compound", "MIC"],
 "data": [
  ["COc1ncc(-c2csc(C(C)Oc3ccc(F)c(C(N)=O)c3F)n2)s1 (centres unmarked) [Compound 23]", "4 to 16 µg/mL"],
  ["NC(=O)c1c(F)ccc(OC(CO)c2nc(-c3ccc(Cl)s3)c(Br)o2)c1F (racemic) [Compound 101]", "1 to 4 µg/mL"],
  ["NC(=O)c1c(F)ccc(OCCCCOc2cccc(OC(F)(F)F)c2)c1F [Compound 166]", "< 1.01 µg/mL"],
  ["NC(=O)c1c(F)ccc(OCCCCOc2ccc(OC(F)(F)F)c(Cl)c2)c1F [Compound 164]", "< 1.01 µg/mL"],
  ["COc1ccc(-c2nc(COc3ccc(F)c(C(N)=O)c3F)sc2-c2cccc(Cl)c2O)cc1 [Compound 191]", "4 to 16 µg/mL"]
]}

Query: Endpoint output: MIC of Cc1nn(-c2ccc(Cl)cc2)nc1COc1ccc(F)c(C(N)=O)c1F [Compound 200] . Value?
Result: 1 to 4 µg/mL

Query: // same read-out, input: NC(=O)c1c(F)ccc(OCCCCOc2ccccc2Cl)c1F [Compound 139]
Result: 4 to 16 µg/mL

Query: // same read-out, input: NC(=O)c1c(F)ccc(OCc2nc(-c3ccc(Cl)s3)cs2)c1F [Compound 203]
Result: < 1.01 µg/mL

Query: // same read-out, input: CN(C)C(=O)OCC(Oc1ccc(F)c(C(N)=O)c1F)c1nc(-c2ccc(C(F)(F)F)cc2)c(Br)o1 (centres unmarked) [Compound 49]
Result: 1 to 4 µg/mL
